Data provenance: paper PMC4409056

Molecular target: MCL1 173–329 (human)
Sequence (Q07820 173-329): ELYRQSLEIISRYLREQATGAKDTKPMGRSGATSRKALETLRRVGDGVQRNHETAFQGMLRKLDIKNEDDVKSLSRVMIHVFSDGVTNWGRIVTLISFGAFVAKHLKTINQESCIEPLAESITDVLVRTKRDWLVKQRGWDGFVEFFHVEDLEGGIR
Test: ITC; hNoxa (20–38) (400 μM or 300 μM) titrated into 25 μM MCL1 173–329 or MBP-MCL1; autoITC200, 25°C, 25 mM Hepes pH 7.4, 100 mM NaCl, 0.1 mM TCEP, 4% DMSO; n ≥ 3, averaged KD
measurement_kind: Kd

Lookup: Tell me its Kd given ELEVECATQLRRFGDKLNF (peptide, UniProt Q13794 20-38, looked up, Noxa, human, BH3 peptide, residues 20-38; also called BH3 peptide Noxa (20–38)) [hNoxa (20–38)] as the entry.
Found: 160 nM
